The reported numbers originate from paper PMC9482650.

Target: DLG5_1, Q8TDM6
Sequence (Q8TDM6 617-713): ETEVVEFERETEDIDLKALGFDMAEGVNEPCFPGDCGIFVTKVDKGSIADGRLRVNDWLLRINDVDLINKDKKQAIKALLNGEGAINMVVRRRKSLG
Assay: holdup assay
Set-up: key: below the threshold = too weak to quantify, mostly under pKd 3.1 to 4
Settings: plain residues with an end cap or a label only (N-terminal biotin on a linker: ado-ado)
measurement.name: pKd

// solved cases for pKd follow
binder	pKd
QPCFNKLFPL [LPXN, O60711]	below the threshold
YYKRPVQEWV [MMP24, Q9Y5R2]	below the threshold
DDPSTAETVL [ABCA7, Q8IZY2]	below the threshold
GSGAVEMESV [AQP6, Q13520]	below the threshold
AKPSRISTVV [IQSEC2, Q5JU85]	below the threshold

// each binder listed below needs its pKd
1. PKRSFIESNV [TANC1, Q9C0D5]
2. CLREWCDAFL [BANF1, O75531]
3. QSARLWETSI [ADAM22, Q9P0K1]

["below the threshold", "below the threshold", "below the threshold"]
